# TARGET_SYSTEM: KRAS 4B G12C protein (Homo sapiens, UniProt P01116, G12C)
# Construct: This protein contained 188 amino acids in total, including an N-terminal 6-Histidine tag; made in house; host or cells: E. coli BL21
# TEST_NAME: In vitro covalent adduct formation (CAF) assay by LC-MS
# Type: binding
# STUDY_CONDITIONS: 60 minutes; compound 10 μM, protein 5 μM, 22° C.; percentage of protein bound by the compound
Criterion: CAF (10 minutes/60 minutes) at 10 micromolar: 60 minutes strictly under 90%. Met: rule met. Not met: rule not met.

# MOLECULE, CLASSIFICATION
records = [
    ("C=CC(=O)N1CCN(c2nc(OC[C@@H]3CCCN3C)nc3c2CN(Cc2c(C)cc(C)c(O)c2C)C3)C[C@@H]1CC#N", "rule met"),
    ("C=CC(=O)N1CCN(c2nc(Oc3cnc(N)nc3C3CC3)nc3c2CN(C2CCc4ccccc42)C3)C[C@@H]1CC#N (stereo partly shown)", "rule met"),
    ("C=CC(=O)N1CCN(c2nc(OC[C@@H]3CCCN3C)nc3c2CN(C2CCc4ccccc42)C3)C[C@@H]1Cn1ccnc1 (stereo partly shown)", "rule met"),
    ("C=CC(=O)N1C[C@H](C)N(c2nc(OC[C@@H]3CCCN3C)nc3c2CN(Cc2cc(O)ccc2F)C3)C[C@H]1C", "rule met"),
    ("C=CC(=O)N1CCN(c2nc(OC[C@@H]3CCCN3C)nc3c2CN(Cc2c(F)cccc2OC(F)F)C3)C[C@@H]1CC#N", "rule not met"),
]

Please let me know if C=CC(=O)N1CCN(c2nc(OC[C@@H]3CCCN3C)nc3c2CN(Cc2cc(Cl)ccc2C)C3)[C@@H](C)C1 shows CAF (10 minutes/60 minutes) at 10 micromolar: 60 minutes below 90%. rule met

Problem: For the molecule C=CC(=O)N1CCN(c2nc(OC[C@@H]3CCCN3C)nc3c2CN(Cc2cccc4[nH]ncc24)C3)C[C@@H]1CC#N , is CAF (10 minutes/60 minutes) at 10 micromolar: 60 minutes under 90%? rule not met

Answer whether the molecule C=CC(=O)N1CCN(c2nc(OC[C@@H]3CCCN3C)nc3c2CN(Cc2c(Cl)cccc2OC)C3)C[C@@H]1C(O)C(F)(F)F (stereo partly shown) has CAF (10 minutes/60 minutes) at 10 micromolar: 60 minutes strictly less than 90% rule met

Determine whether this molecule shows CAF (10 minutes/60 minutes) at 10 micromolar: 60 minutes lower than 90% (ties excluded): C=CC(=O)N1CCN(c2nc(OC[C@@H]3CCCN3C)nc3c2CN(Cc2c(CC)ccc(O)c2C)C3)C[C@@H]1CC#N rule not met

----------
# TARGET_SYSTEM: KRAS 4B G12C protein (Homo sapiens, UniProt P01116, G12C)
# Construct: This protein contained 188 amino acids in total, including an N-terminal 6-Histidine tag; made in house; host or cells: E. coli BL21
# TEST_NAME: In vitro covalent adduct formation (CAF) assay by LC-MS
# Assay type: binding
# STUDY_CONDITIONS: 10 minutes; compound 10 μM, protein 5 μM, 22° C.; percentage of protein bound by the compound
Provide the reported CAF (10 minutes/60 minutes) at 10 micromolar: 10 minutes of each item.
Give bare numbers, in %.

For every item below, please supply its CAF (10 minutes/60 minutes) at 10 micromolar: 10 minutes.
1. C=CC(=O)N1CCN(c2nc(OC)nc3c2CN(Cc2cc(OC)ccc2Cl)C3)C[C@@H]1CC#N [1-74]
2. C=CC(=O)N1CCN(c2nc(OC[C@@H]3CCCN3C)nc3c2CN(c2cccc4ccccc24)C3)C[C@@H]1CC#N [1-9]
3. C=C(F)C(=O)N1CCN(c2nc(OC[C@@H]3CCCN3C)nc3c2CN(C2CCc4cccc(Cl)c42)C3)C[C@@H]1CC#N (stereo partly shown) [1-127]

1: 2; 2: 35; 3: 64

# credit: patent US20210292330A1
